Reference source for all entries: the supplement of paper PMC9732359

Assay protocol: protein stability index of a GFP-peptide fusion (yeast GPS) (PSI 1-4); higher = more stable; sorted into four equal gates, so the index is relative within each strain
Assay context: san1∆
Here, each record is paired with measured protein stability index data.
Lab note: write the figure by itself, no unit.

Below, 5 sequences whose answers are already recorded.
[
  {
    "Sequence string": "LSIAIVGKDTPFTIYDG [PRE5]",
    "Quantitative readout": 2.78
  },
  {
    "Sequence string": "TDRESYPRLQDPSRELN [YCS4]",
    "Quantitative readout": 3.23
  },
  {
    "Sequence string": "ECQVIAAEGLCKLFLAD [YCG1]",
    "Quantitative readout": 3.11
  },
  {
    "Sequence string": "EENWDDVEVDDDFTNEL [SEM1]",
    "Quantitative readout": 3.05
  },
  {
    "Sequence string": "GSPQMLANEERLSNEMH [RGR1]",
    "Quantitative readout": 3.39
  }
]

sequence VFQAKMMDMLKQTGRDQ [RPN11] , protein stability index observed: 2.52

====

Assay protocol: protein stability index of a GFP-peptide fusion (yeast GPS) (PSI 1-4); higher = more stable; sorted into four equal gates, so the index is relative within each strain
Assay context: san1∆
Here, each record is paired with measured protein stability index data.
Lab note: write the figure by itself, no unit.

Below, 5 sequences whose answers are already recorded.
[
  {
    "Sequence string": "KCTAEGIKVSLLGIFDD [RPC25]",
    "protein stability index": 2.27
  },
  {
    "Sequence string": "VQGKNLLTNFHGMDFTT [RPS1A]",
    "protein stability index": 3.22
  },
  {
    "Sequence string": "NRAARDRRAQRVAEKRD [RPL19A]",
    "protein stability index": 2.85
  },
  {
    "Sequence string": "DEYQAAVEQRKKEKLDS [DPB4]",
    "protein stability index": 3.38
  },
  {
    "Sequence string": "YVMERPKNVPTSKWLNS [YDL116W/NUP84]",
    "protein stability index": 2.63
  }
]

sequence GQVVLTPLTFALPRGAR [RPL14A] , protein stability index observed: 1.18

sequence LFKALKVILNERGGKFH [RGR1] , protein stability index observed: 2.17

sequence SVSLVDEFPSELSDSDR [SIR4] , protein stability index observed: 2.64

sequence LPNEMSQNDGFVIIRGS [RPO31] , protein stability index observed: 3.23

sequence GRRLSMLASQANGGSTI [DSN1] , protein stability index observed: 2.42

sequence LMYSITFHHHGRQTVLI [SRB2] , protein stability index observed: 3.18

====

Here, each record is paired with measured protein stability index data.
Assay protocol: protein stability index of a GFP-peptide fusion (yeast GPS) (PSI 1-4); higher = more stable; sorted into four equal gates, so the index is relative within each strain
Assay context: doa10∆
Lab note: write the figure by itself, no unit.

Below, 5 sequences whose answers are already recorded.
[
  {
    "Sequence string": "PTTVSYIFCISRTIGMV [SCL1]",
    "protein stability index": 1.99
  },
  {
    "Sequence string": "NEENDLDVDPAKRIRVS [RPB2]",
    "protein stability index": 3.01
  },
  {
    "Sequence string": "QGFSKDTFELIKTFLVD [YDL116W/NUP84]",
    "protein stability index": 3.02
  },
  {
    "Sequence string": "NRSAKNSKNDSANVELF [YCS4]",
    "protein stability index": 3.09
  },
  {
    "Sequence string": "KKINAKEKLIGWYHSGP [RPN8]",
    "protein stability index": 2.91
  }
]

sequence IAVLRSKEWFQLDDEDF [FAS1] , protein stability index observed: 2.03

sequence LELGSCFSQENIEEMAR [SIN4] , protein stability index observed: 2.02

sequence ELTLAEQQVKEAEMAYV [SMC4] , protein stability index observed: 3.02
